Target: T1, extracellular domain (ECD) of human TrkA protein, N-terminal flag tag and C-terminal His tag (PHA) (human, UniProt P04629 33-423)
T1 construct: Made in 293-F cells and purified by IMAC; also called TrkA ECD protein; TrkA (ECD); not shown: flag tag at the N-terminus (after the signal peptide); His tag at the C-terminus
T1 sequence (P04629 33-423): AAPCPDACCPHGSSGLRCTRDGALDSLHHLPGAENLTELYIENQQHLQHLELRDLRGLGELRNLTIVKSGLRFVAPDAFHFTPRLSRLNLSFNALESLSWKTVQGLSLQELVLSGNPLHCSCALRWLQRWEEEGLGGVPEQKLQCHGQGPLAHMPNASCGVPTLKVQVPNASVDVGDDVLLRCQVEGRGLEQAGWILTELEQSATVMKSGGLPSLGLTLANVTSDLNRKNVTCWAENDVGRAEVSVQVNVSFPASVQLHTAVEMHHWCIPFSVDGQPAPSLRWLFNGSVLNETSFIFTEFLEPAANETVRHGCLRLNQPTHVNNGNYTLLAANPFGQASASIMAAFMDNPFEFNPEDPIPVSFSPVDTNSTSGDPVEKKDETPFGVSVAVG
Experiment: SPR (BIAcore T200), antibody on protein G chip, PHA 0.625-20 nM injected
Readout: koff (s⁻¹)
One number for each entry, in s⁻¹.

Given item chi-PHD48 (the chimeric antibody derived from muPHD48) (antibody, V domains shown, Chimeric: VH in the pCDNA3.4-hIgG4 vector and VL in the pCDNA3.4-hKappa vector (human IgG4 / human kappa constant regions)) VH: EVQLQQSGTVLARPGASVKMSCKASGYSFTTYWMHWVKQRPGQGLEWIGTIYPGNSDSSNNQKFKGKAKLTAVTSASTAYMELSSLTNEDSAVYYCTRFYYEDWYFDVWGAGTTVTVSS VL: QIVLTQSPAIMSASPGEKVTISCSASSSVSYMYWFQQKPGSSPKPWIYRTSNLASGVPARFSGSGSGTSYSLTISSMEAEDAATYYCQQYHSYPPTFGGGTKLEIK , the value recorded as its koff is 0.00069
